# measurement_target: rat collagen (acid soluble, type I, rat tail, Upstate 08-115) (rat) (UniProt P02454)
# Sequence (P02454 152-1207, chain 1 of 2): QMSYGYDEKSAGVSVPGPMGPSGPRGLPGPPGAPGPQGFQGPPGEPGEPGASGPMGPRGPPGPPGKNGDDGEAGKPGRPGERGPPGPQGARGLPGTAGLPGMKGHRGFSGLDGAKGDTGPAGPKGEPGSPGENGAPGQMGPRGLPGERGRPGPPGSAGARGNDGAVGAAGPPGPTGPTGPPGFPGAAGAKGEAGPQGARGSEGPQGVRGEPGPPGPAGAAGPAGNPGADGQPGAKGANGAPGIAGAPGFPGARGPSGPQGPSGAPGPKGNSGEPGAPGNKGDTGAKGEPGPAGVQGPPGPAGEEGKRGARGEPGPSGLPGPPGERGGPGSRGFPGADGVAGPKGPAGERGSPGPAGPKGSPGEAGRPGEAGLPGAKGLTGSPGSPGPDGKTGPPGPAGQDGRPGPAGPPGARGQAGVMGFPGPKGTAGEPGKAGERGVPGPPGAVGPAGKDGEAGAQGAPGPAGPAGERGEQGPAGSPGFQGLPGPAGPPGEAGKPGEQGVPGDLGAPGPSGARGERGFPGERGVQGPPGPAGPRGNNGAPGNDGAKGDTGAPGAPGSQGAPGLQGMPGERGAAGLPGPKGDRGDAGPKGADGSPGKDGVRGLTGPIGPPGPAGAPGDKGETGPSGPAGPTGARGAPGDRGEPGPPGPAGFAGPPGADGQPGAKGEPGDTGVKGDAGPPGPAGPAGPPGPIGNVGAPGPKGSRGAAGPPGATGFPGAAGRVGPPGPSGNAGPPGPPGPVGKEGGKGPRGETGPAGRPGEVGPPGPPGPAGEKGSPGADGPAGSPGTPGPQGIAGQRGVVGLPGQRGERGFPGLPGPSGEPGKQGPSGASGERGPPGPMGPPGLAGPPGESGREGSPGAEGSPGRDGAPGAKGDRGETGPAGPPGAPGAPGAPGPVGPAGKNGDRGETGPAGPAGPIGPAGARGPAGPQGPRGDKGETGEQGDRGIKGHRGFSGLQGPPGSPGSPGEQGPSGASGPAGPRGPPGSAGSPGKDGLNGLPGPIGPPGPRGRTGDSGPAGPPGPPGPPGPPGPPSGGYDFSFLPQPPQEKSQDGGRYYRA
# Sequence (P02466 86-1125, chain 2 of 2, further chain): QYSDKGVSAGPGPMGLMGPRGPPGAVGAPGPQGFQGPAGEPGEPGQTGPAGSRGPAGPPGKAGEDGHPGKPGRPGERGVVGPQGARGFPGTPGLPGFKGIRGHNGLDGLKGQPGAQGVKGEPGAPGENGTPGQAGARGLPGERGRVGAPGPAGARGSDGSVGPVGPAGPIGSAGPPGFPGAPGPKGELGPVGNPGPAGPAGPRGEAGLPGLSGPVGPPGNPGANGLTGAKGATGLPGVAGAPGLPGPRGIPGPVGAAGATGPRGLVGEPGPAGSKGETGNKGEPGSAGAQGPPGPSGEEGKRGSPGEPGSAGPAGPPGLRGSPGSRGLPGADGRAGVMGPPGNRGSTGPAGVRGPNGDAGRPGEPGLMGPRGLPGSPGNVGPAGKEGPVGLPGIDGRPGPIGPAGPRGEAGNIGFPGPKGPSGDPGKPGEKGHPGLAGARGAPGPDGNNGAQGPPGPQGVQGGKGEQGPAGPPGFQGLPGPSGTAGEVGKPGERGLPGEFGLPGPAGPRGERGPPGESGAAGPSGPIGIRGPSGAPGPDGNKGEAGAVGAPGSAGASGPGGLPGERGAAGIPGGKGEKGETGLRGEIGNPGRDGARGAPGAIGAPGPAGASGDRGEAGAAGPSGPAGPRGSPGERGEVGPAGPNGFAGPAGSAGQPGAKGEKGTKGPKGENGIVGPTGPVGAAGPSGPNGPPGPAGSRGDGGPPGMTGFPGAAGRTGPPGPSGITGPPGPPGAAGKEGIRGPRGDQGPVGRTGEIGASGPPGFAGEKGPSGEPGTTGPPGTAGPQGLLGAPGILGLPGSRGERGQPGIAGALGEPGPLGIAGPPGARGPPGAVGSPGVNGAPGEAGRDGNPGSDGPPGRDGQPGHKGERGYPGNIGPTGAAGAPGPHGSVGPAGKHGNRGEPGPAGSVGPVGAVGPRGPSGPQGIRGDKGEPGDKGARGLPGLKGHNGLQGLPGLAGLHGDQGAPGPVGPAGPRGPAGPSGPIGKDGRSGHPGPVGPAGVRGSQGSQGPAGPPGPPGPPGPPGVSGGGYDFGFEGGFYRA
# assay_notes: dried collagen assay, 5 uM each
quantity: Rat binding (%)
Return type: number; implicit unit %.

Some binders with recorded Rat binding:
{"binder": "GYKWHCTTYFPHHYCLYG [Compound ID 981]", "result_unit": "%", "Rat binding": 81}
{"binder": "GQWHCTNRFPHHYCLYG [Compound ID 897]", "result_unit": "%", "Rat binding": 1}

Incoming: I have this binder here, GQWHCATRFPHHYCLYG [Compound ID 877] , and I need its recorded Rat binding.
Outgoing: 41

Incoming: Continue with GQWHCTYRFPHHYCLYG [Compound ID 899]
Outgoing: 14

Incoming: Similarly, GKWHCTTYFPHHFCLYG [Compound ID 972] ?
Outgoing: 0

Incoming: Same again, this time with GVKWHCTTYFPHHYCLYG [Compound ID 982]
Outgoing: 47

Incoming: Param item: GQWTCSGDAYTWHCAYE [Compound ID 820]
Outgoing: 29

Incoming: GQWHCTTFFPHHYCLYG [Compound ID 929] , same question.
Outgoing: 34

Incoming: // query: GQWNCTTLFPHHYCLYG [Compound ID 922]
Outgoing: 58
